Where do the numbers come from? From patent US7414054B2.

molecular target: cytoplasmic domain of the human VEGF receptor (VEGFR-2) (Homo sapiens, UniProt P35968); construct: The cytoplasmic domain of the human VEGF receptor (VEGFR-2) was expressed as a Histidine-tagged fusion protein; His (Histidine tag); assay: KDR Assay; conditions: His-VEGFR-2; 3.6 μM ATP
Sequence (P35968 786-1356 limits assumed): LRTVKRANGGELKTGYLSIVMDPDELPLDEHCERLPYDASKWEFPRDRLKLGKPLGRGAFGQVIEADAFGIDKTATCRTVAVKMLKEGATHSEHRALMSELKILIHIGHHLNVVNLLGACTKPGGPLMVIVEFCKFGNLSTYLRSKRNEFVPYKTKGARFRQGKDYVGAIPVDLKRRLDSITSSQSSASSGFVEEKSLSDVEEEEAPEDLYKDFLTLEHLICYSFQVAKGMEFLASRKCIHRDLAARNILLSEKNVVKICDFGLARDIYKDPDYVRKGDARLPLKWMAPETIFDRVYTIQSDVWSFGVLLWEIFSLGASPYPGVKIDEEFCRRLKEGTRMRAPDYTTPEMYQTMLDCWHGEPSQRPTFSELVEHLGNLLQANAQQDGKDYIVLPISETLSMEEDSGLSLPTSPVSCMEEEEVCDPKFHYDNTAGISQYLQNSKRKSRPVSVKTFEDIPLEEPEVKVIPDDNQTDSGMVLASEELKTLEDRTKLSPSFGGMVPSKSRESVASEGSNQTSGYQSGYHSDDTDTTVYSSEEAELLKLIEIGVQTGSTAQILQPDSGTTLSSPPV
pIC50: −log10 of the molar value.

| COMPOUND | pIC50 |
| --- | --- |
| O=C1Nc2ccc(F)cc2C1=CNc1ccc(N2CCCCC2)cc1 [Example 221] | 6.42 |
| Cc1cccc2c1C(=CNc1ccc(C(=O)O)c(O)c1)C(=O)N2 [Example 155] | 6.40 |
| CCN(CC)Cc1cc(NC=C2C(=O)Nc3cccc(C)c32)ccc1O [Example 161] | 6.80 |
